- Test system: 935938-334-R-J1-PDC complex spheroid viability;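 note: spheroids exposed to drugs for seven days before viability read; 100% = DMSO vehicle control wells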
- Protocol Text: Anticancer human tumor 935938-334-R-J1-PDC patient-derived small intestine adenocarcinoma cell line growth inhibition [POLQ]
- Test Settings: second compound 10 µM; first compound 0.0316 µM; active compounds read low
- Description: Multicellular complex tumor spheroid response to Polymerase (POL) inhibitors (novobiocin, ART-558, RP6685) in combination with a variety of drugs and investigational agents in selected tumor cell lines The POL inhibitors (novobiocin, ART-558, and RP6685) were evaluated both individually and in combination with standard of care and investigational anticancer small molecules within a complex spheroid model of solid tumors. . […]
Result Type: viability, T/C (%)
// return numeric value only (unit: %, not printed)

CC1COCCN1c1cc(C2(S(C)(=N)=O)CC2)nc(-c2ccnc3[nH]ccc23)n1 (stereo unspecified) + Cc1cccc(N(C)C(=O)C2C(O)CCN2c2nc(C)cc(C(F)(F)F)c2C#N)c1: 116
Nc1ccn(C2OC(CO)C(O)C2(F)F)c(=O)n1 (stereo unspecified) + Nc1ccc(C#CCN(C(=O)Cc2ncc(C(F)(F)F)cc2C(F)(F)F)c2ccc(F)cc2)nn1: 42.9
CCc1cc2c(N3CCc4c(cc(Cn5ccnc5)cc4-c4cn(C)nc4C(F)(F)F)C3=O)ccnc2c(OC)n1 + Nc1ccc(C#CCN(C(=O)Cc2ncc(C(F)(F)F)cc2C(F)(F)F)c2ccc(F)cc2)nn1: 80.7
CC1COCCN1c1cc(C2(S(C)(=N)=O)CC2)nc(-c2ccnc3[nH]ccc23)n1 (stereo unspecified) + COC1C(OC(N)=O)C(O)C(Oc2ccc3c(O)c(NC(=O)c4ccc(O)c(CC=C(C)C)c4)c(=O)oc3c2C)OC1(C)C: 105

[in] Which viability, T/C value belongs to CCc1cc2c(N3CCc4c(cc(Cn5ccnc5)cc4-c4cn(C)nc4C(F)(F)F)C3=O)cc(C)nc2c(OC)n1 + Nc1ccc(C#CCN(C(=O)Cc2ncc(C(F)(F)F)cc2C(F)(F)F)c2ccc(F)cc2)nn1 ?
[out] 70.5

[in] viability, T/C lookup needed for COc1ccc([C@@H](O)c2cc(-c3ncnc4cc(N5CCOCC5)ccc34)c(F)cc2Cl)nn1 + Nc1ccc(C#CCN(C(=O)Cc2ncc(C(F)(F)F)cc2C(F)(F)F)c2ccc(F)cc2)nn1 , thanks.
[out] 81.1

[in] Given the entry O=C(Nc1ccc(O)c(NS(=O)(=O)c2ccc(F)cc2)c1)c1ccc(-c2ccccc2)cc1 + COC1C(OC(N)=O)C(O)C(Oc2ccc3c(O)c(NC(=O)c4ccc(O)c(CC=C(C)C)c4)c(=O)oc3c2C)OC1(C)C , report its measured viability, T/C.
[out] 145

[in] Entry CCCS(=O)(=O)Nc1ccc(F)c(C(=O)c2c[nH]c3ncc(-c4ccc(Cl)cc4)cc23)c1F + Nc1ccc(C#CCN(C(=O)Cc2ncc(C(F)(F)F)cc2C(F)(F)F)c2ccc(F)cc2)nn1 : reported viability, T/C = ?
[out] 104

[in] Requested read-out: viability, T/C. Entry: COc1cc(C2c3cc4c(cc3C(OC3OC5COC(C)OC5C(O)C3O)C3COC(=O)C23)OCO4)cc(OC)c1O (stereo unspecified) + COC1C(OC(N)=O)C(O)C(Oc2ccc3c(O)c(NC(=O)c4ccc(O)c(CC=C(C)C)c4)c(=O)oc3c2C)OC1(C)C
[out] 96.9

[in] Entry under review: COc1ccc([C@@H](O)c2cc(-c3ncnc4cc(N5CCOCC5)ccc34)c(F)cc2Cl)nn1 + Cc1cccc(N(C)C(=O)C2C(O)CCN2c2nc(C)cc(C(F)(F)F)c2C#N)c1 . Reported viability, T/C?
[out] 103

[in] Fill in: viability, T/C of COc1cc2cc(C(=O)CCC(=O)O)sc2cc1OC + COC1C(OC(N)=O)C(O)C(Oc2ccc3c(O)c(NC(=O)c4ccc(O)c(CC=C(C)C)c4)c(=O)oc3c2C)OC1(C)C is ___
[out] 171
